These entries and their values trace back to paper PMC4374931.

experiment: in vitro; type: cell-based; details: human
Structures can show the parent of a compound that is named as a salt.
measurement_kind: viability at 24 h, 10 μM (%)

INSERT INTO assay_data (molecule, numeric_value) VALUES
  ('C[C@@H]1C[C@H]2[C@@H]3CCC4=CC(=O)C=C[C@]4(C)[C@@]3(F)[C@@H](O)C[C@]2(C)[C@@]1(O)C(=O)CO', 108),
  ('C[C@H]1C[C@@H]2[C@H]([C@@H](O)C[C@@]3(C)[C@H]2CC[C@]3(O)C(=O)CO)[C@@]2(C)C=CC(=O)C=C12', 105),
  ('CC(=O)[C@H]1CC[C@H]2[C@@H]3CCC4=CC(=O)CC[C@]4(C)[C@H]3CC[C@]12C', 91),
  ('O=c1c(-c2ccc(O)cc2)coc2cc(O)cc(O)c12', 120),
  ('C[C@]12C[C@H](O)[C@H]3[C@@H](CCC4=CC(=O)CC[C@@]43C)[C@@H]1CC[C@@H]2C(=O)CO', 105),
  ('C#C[C@]1(O)CC[C@H]2[C@@H]3CCC4=Cc5oncc5C[C@]4(C)[C@H]3CC[C@@]21C', 114),
  ('CC(=O)O[C@]1(C(C)=O)CC[C@H]2[C@@H]3C=C(Cl)C4=CC(=O)[C@@H]5C[C@@H]5[C@]4(C)[C@H]3CC[C@@]21C [Cyproterone acetate, cyproterone acetate]', 89.5),
  ('O=C(c1ccc(OCCN2CCCCC2)cc1)c1c(-c2ccc(O)cc2)sc2cc(O)ccc12 [Raloxifene hydrochloride, raloxifene hydrochloride]', 7.1),
  ('C[C@]12CC[C@@H]3c4ccc(O)cc4CC[C@H]3[C@@H]1CC[C@@H]2O', 116),
  ('CC#C[C@]1(O)CC[C@H]2[C@@H]3CCC4=CC(=O)CCC4=C3[C@@H](c3ccc(N(C)C)cc3)C[C@@]21C', 41.7),
  ('CC(=O)S[C@@H]1CC2=CC(=O)CC[C@]2(C)[C@H]2CC[C@@]3(C)[C@@H](CC[C@@]34CCC(=O)O4)[C@H]12', 58.9);
